Reference source for all entries: ChEMBL document CHEMBL3875190

protocol notes: Partition coefficient, logD of compound at pH 7 by HPLC analysis
Assay type: physicochemical
measurement parameters: octanol/water
Property: logD; scope: individual compounds

| compound | logD |
| --- | --- |
| CC[C@H](C)N1C(=O)C2(CC2)c2cnc(Nc3cccnc3)nc21 | 2.3 |
| CC[C@H](C)N1C(=O)C(C)(C)c2cnc(Nc3ccc(S(C)(=O)=O)cc3)nc21 | 3.09 |
| CC[C@H](C)N1C(=O)C(C)(C)c2cnc(Nc3ccc(CN4CC(C)OC(C)C4)cc3)nc21 (some centres undefined) | 3.98 |
| CC[C@H](C)N1C(=O)C(C)(C)c2cnc(Nc3ccc(-c4nnc(C)[nH]4)cc3)nc21 | 2.21 |
